biological target: PI3Kα H1047R (Homo sapiens, UniProt P42336, H1047R); construct: The protein contained a full-length p110-a subunit harboring the H1047R mutation with an N-terminal AviTag; experiment: Surface Plasmon Resonance (SPR) binding, wortmannin-blocked protein; settings: Biacore 8K, protein pre-incubated with 1 μM wortmannin, 25° C.
Sequence (P42336 whole entry H1047R): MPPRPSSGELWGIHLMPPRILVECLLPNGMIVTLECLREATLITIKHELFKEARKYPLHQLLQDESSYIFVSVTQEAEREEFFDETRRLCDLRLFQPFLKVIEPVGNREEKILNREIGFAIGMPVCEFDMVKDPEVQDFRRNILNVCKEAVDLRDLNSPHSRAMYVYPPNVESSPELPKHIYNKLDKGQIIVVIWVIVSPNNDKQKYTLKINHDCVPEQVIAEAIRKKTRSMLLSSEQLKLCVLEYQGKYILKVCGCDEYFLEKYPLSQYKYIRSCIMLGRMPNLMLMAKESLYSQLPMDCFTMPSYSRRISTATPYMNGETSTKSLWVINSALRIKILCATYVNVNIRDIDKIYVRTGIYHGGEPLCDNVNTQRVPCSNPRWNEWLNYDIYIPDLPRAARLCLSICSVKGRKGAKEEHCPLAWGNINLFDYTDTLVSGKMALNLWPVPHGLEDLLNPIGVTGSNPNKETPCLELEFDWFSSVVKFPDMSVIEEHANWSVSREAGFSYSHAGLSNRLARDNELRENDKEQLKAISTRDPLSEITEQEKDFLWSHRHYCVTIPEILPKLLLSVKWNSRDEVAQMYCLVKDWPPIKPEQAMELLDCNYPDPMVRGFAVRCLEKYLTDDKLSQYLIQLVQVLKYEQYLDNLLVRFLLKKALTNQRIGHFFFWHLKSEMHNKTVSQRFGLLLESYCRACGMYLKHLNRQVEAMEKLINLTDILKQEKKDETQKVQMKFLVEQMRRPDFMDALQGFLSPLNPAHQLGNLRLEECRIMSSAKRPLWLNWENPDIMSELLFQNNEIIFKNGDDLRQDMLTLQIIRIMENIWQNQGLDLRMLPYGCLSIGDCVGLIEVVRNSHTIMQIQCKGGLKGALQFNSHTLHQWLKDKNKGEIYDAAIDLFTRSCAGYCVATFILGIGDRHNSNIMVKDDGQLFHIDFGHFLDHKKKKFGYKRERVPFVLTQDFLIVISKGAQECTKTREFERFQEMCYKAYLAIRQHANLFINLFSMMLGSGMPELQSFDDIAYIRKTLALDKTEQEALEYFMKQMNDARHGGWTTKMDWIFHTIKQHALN
Sequence (P27986 322-694 partner limits assumed): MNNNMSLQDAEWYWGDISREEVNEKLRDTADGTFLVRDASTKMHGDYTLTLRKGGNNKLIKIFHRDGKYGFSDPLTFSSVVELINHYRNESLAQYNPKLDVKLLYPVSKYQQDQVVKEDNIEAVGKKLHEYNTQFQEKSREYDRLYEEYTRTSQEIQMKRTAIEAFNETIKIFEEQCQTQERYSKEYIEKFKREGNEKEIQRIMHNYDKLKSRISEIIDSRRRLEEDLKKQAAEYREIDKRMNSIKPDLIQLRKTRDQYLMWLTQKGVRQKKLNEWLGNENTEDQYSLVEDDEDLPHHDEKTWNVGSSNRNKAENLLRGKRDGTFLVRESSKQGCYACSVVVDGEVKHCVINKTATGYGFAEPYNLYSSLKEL
Measurement label: Kd

Compound | Target or system | Measurement label | Measured
Cc1c([C@@H](NC(=O)N[C@H]2CC[C@H](C(N)=O)CC2)C(C)C)oc2ccc(F)cc12 (relative stereo) | PI3Kα H1047R (Homo sapiens, UniProt P42336, H1047R) | Kd | ≥ 500 nM
